B1: Azurin, P00282 (parent)
chain: MLRKLAAVSLLSLLSAPLLAAECSVDIQGNDQMQFNTNAITVDKSCKQFTVNLSHPGNLPKNVMGHNWVLSTAADMQGVVTDGMASGLDKDYLKPDDSRVIAHTKLIGSGEKDSVTFDVSKLKEGEQYMFFCTFPGHSALMKGTLTLK

Variants of: B1
study.conditions: Pseudomonas aeruginosa (strain ATCC 15692 / DSM 22644 / CIP 104116 / JCM 14847 / LMG 12228 / 1C / PRS 101 / PAO1); pH 7; 25 °C; GdnHCl; Fluorescence; Phosphate 100 mM; reversible: Yes; structure 5AZU; whole UniProt chain shown
Each entry below lists one item and its recorded unfolding free energy value.
measured.property: unfolding free energy (kcal/mol)

{"seq": "MLRKLAAVSLLSLLSAPLLAAECSADIQGNDQMQFNTNAITVDKSCKQFTVNLSHPGNLPKNVMGHNWVLSTAADMQGVVTDGMASGLDKDYLKPDDSRVIAHTKLIGSGEKDSVTFDVSKLKEGEQYMFFCTFPGHSALMKGTLTLK [V25A]", "measured.property": "unfolding free energy", "measured.number": 5.98}
{"seq": "MLRKLAAVSLLSLLSAPLLAAECSVDIQGNDQMQFNTNAITVDKSCKQFTVNLSHPGNLPKNVMGHNWVLSTAADMQGVGTDGMASGLDKDYLKPDDSRVIAHTKLIGSGEKDSVTFDVSKLKEGEQYMFFCTFPGHSALMKGTLTLK [V80G]", "measured.property": "unfolding free energy", "measured.number": 2.87}
{"seq": "MLRKLAAVSLLSLLSAPLLAAECSVDIQGNDQMQFNTNAITVDKSCKQFTVNLSHPGNLPKNVMGHNWVLSTAADMQGVVTDGMASGLDKDYLKPDDSRVIAHTKLIGSGEKDSVTFDVSKLKEGEQYMFFCTFPGHSALMKGTATLK [L145A]", "measured.property": "unfolding free energy", "measured.number": 5.26}
{"seq": "MLRKLAAVSLLSLLSAPLLAAECSVDIQGNDQMQFNTNAITVDKSCKQFTVNLSHPGNLPKNVMGHNWVLSTAADMQGVVTDGMASGLDKDYLKPDDSRVIGHTKLIGSGEKDSVTFDVSKLKEGEQYMFFCTFPGHSALMKGTLTLK [A102G]", "measured.property": "unfolding free energy", "measured.number": 2.87}
{"seq": "MLRKLAAVSLLSLLSAPLLAAECSVDAQGNDQMQFNTNAITVDKSCKQFTVNLSHPGNLPKNVMGHNWVLSTAADMQGVVTDGMASGLDKDYLKPDDSRVIAHTKLIGSGEKDSVTFDVSKLKEGEQYMFFCTFPGHSALMKGTLTLK [I27A]", "measured.property": "unfolding free energy", "measured.number": 2.87}
